assay: self-splicing fitness, log relative to wild type (ln ratio); higher = more splicing; Tetrahymena group I intron in knt gene, E. coli kanamycin selection, DiMSum; sequences stand for … in CUCUCU…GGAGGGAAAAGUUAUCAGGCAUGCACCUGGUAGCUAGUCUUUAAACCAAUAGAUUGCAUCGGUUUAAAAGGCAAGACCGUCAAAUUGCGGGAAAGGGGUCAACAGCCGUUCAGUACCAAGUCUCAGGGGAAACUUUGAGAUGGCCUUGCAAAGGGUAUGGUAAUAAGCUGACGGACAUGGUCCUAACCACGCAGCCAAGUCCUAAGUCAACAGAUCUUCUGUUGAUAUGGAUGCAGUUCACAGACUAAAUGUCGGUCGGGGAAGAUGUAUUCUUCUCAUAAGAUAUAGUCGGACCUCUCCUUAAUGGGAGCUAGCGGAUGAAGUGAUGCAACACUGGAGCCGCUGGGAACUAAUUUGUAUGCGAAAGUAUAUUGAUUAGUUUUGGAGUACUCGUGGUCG; details: 37 °C;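 also: selection with 25 µg/mL kanamycin versus none on LB agar overnight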
Reported values of self-splicing fitness (ln) for individual entries
Assay Metric: self-splicing fitness (ln)

input_sequence=AGCGAGCAAUAUUACGUGGC recorded_measurement=-2.46
input_sequence=ACUGAGCAAUAUUACGCUGU recorded_measurement=-1.7
input_sequence=AUACAGCAAUAUUACGAUGU recorded_measurement=-0.0117
input_sequence=UCUGAGCAAUAUUACGGCUU recorded_measurement=-2.34
input_sequence=UCUAAGCAAUAUUACGAGUC recorded_measurement=-2.93
input_sequence=CGUCAGCAAUAUUACGUCAU recorded_measurement=-2.59
input_sequence=UAGCAGCAAUAUUACGGACU recorded_measurement=-0.713
input_sequence=ACUGAGCAAUAUUACGUCGG recorded_measurement=-2.47
input_sequence=AAAGAGCAAUAUUACGUGGA recorded_measurement=-2.67
input_sequence=GUUUAGCAAUAUUACGUAUA recorded_measurement=-1.41
input_sequence=CCGUAGCAAUAUUACGAACG recorded_measurement=-0.439
input_sequence=CAAAAGCAAUAUUACGAUUG recorded_measurement=-1.82
input_sequence=UAUAAGCAAUAUUACGAGAG recorded_measurement=-2.52
input_sequence=CGCUAGCAAUAUUACGCAGU recorded_measurement=-2.35
input_sequence=CAACAGCAAUAUUACGUAGU recorded_measurement=-1.91
input_sequence=CGUCAGCAAUAUUACGGGGA recorded_measurement=-1.91

* * *

assay: self-splicing fitness, log relative to wild type (ln ratio); higher = more splicing; Tetrahymena group I intron in knt gene, E. coli kanamycin selection, DiMSum; sequences stand for … in CUCUCU…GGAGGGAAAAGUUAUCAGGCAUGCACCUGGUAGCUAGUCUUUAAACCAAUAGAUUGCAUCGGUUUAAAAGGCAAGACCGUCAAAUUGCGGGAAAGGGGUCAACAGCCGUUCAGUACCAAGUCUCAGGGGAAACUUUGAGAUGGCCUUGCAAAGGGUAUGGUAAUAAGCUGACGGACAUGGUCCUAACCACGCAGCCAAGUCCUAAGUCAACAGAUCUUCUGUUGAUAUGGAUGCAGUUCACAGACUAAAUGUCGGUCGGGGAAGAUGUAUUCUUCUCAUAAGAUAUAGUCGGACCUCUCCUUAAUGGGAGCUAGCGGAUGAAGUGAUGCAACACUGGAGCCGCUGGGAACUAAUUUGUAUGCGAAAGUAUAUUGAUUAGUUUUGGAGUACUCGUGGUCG; conditions: 37 °C
Assay Metric: self-splicing fitness (ln)

input_sequence=GCGAAGCAAUAUUACGCAGC assay_metric="self-splicing fitness (ln)" recorded_measurement=-2.06
input_sequence=UUUCAGCAAUAUUACGGGUG assay_metric="self-splicing fitness (ln)" recorded_measurement=-0.441
input_sequence=AGCCAGCAAUAUUACGCACG assay_metric="self-splicing fitness (ln)" recorded_measurement=-0.605
input_sequence=AAAAAGCAAUAUUACGAUUU assay_metric="self-splicing fitness (ln)" recorded_measurement=0.324
input_sequence=ACCGAGCAAUAUUACGCCUG assay_metric="self-splicing fitness (ln)" recorded_measurement=-2.44
input_sequence=UACAAGCAAUAUUACGCCCU assay_metric="self-splicing fitness (ln)" recorded_measurement=-0.111
input_sequence=CUCAAGCAAUAUUACGAUCA assay_metric="self-splicing fitness (ln)" recorded_measurement=-1.09
input_sequence=ACUUAGCAAUAUUACGAAUG assay_metric="self-splicing fitness (ln)" recorded_measurement=-1.13
input_sequence=UGCAAGCAAUAUUACGCACA assay_metric="self-splicing fitness (ln)" recorded_measurement=-0.954
input_sequence=AGUUAGCAAUAUUACGUUAU assay_metric="self-splicing fitness (ln)" recorded_measurement=-2.08
input_sequence=GUACAGCAAUAUUACGUCUC assay_metric="self-splicing fitness (ln)" recorded_measurement=-0.182
input_sequence=GCCUAGCAAUAUUACGUGAU assay_metric="self-splicing fitness (ln)" recorded_measurement=0.159
input_sequence=CGCCAGCAAUAUUACGAGCU assay_metric="self-splicing fitness (ln)" recorded_measurement=-1.59
input_sequence=CCAAAGCAAUAUUACGCUAU assay_metric="self-splicing fitness (ln)" recorded_measurement=-2.39
input_sequence=CUUAAGCAAUAUUACGCAGC assay_metric="self-splicing fitness (ln)" recorded_measurement=-1.93
input_sequence=GAUGAGCAAUAUUACGAUAC assay_metric="self-splicing fitness (ln)" recorded_measurement=-0.654

meta.source: the supplement of paper PMC7877785
